# Tested on: HLA-B*44
# methodDescription: MHC binding assay (UV-ligand exchange, β2m ELISA)
# Design: species or system human
# protocolConditions: UV-ligand exchange, β2m ELISA
readoutType: Peptide exchange (peptide exchange yield, MHC class I binding score)

substance: 370 (YEDLSQKY; listed as Homo sapiens) [compound 370]
assayedTarget: HLA-B*44
reportedResult: “+” (>10% = +)

substance: 330 (KEGDLGGKQW; listed as Homo sapiens) [compound 330]
assayedTarget: HLA-B*44
reportedResult: “+++” (>50 =+++)

substance: 320 (MEVDPIGHVYIF; listed as Homo sapiens) [compound 320]
assayedTarget: HLA-B*44
reportedResult: “++++” (>75% = ++++)

substance: 374 (DEVNFLVY; listed as Homo sapiens) [compound 374]
assayedTarget: HLA-B*44
reportedResult: “+” (>10% = +)

substance: 365 (SEMNVNMKY; listed as Homo sapiens) [compound 365]
assayedTarget: HLA-B*44
reportedResult: “++++” (>75% = ++++)

substance: 480 (GEVSGLTKDF; listed as Homo sapiens) [compound 480]
assayedTarget: HLA-B*44
reportedResult: “++” (>20% = ++)

substance: 331 (EDAQGHIW; listed as Homo sapiens) [compound 331]
assayedTarget: HLA-B*44
reportedResult: “+++” (>50 =+++)

substance: 368 (GEFPVRVQV; listed as Homo sapiens) [compound 368]
assayedTarget: HLA-B*44
reportedResult: “++” (>20% = ++)

substance: 321 (AEMLESVIKNY; listed as Homo sapiens) [compound 321]
assayedTarget: HLA-B*44
reportedResult: “+++” (>50 =+++)

substance: 359 (DELFSIALY; listed as Homo sapiens) [compound 359]
assayedTarget: HLA-B*44
reportedResult: “+++” (>50 =+++)

substance: 347 (ALNPYQYQY; listed as Homo sapiens) [compound 347]
assayedTarget: HLA-B*44
reportedResult: “+++” (>50 =+++)

substance: 351 (EEVNYINTF; listed as Homo sapiens) [compound 351]
assayedTarget: HLA-B*44
reportedResult: “+++” (>50 =+++)

substance: 353 (GEIIMQNNW; listed as Homo sapiens) [compound 353]
assayedTarget: HLA-B*44
reportedResult: “++++” (>75% = ++++)

###

# assayedTarget: HLA-B*07 (Homo sapiens, UniProt P01889)
# methodDescription: MHC binding assay (UV-ligand exchange, β2m ELISA)
readoutType: Peptide exchange (peptide exchange yield, MHC class I binding score)

substance: 256 (SPRVPSIEL; listed as Homo sapiens) [compound 256]
reportedResult: “++++” (>75% = ++++)
//
substance: 231 (RPRALRDLQL; listed as Homo sapiens) [compound 231]
reportedResult: “++++” (>75% = ++++)
//
substance: 242 (SPRWLPVSL; listed as Homo sapiens) [compound 242]
reportedResult: “++++” (>75% = ++++)
//
substance: 258 (LPRGPLASL; listed as Homo sapiens) [compound 258]
reportedResult: “++++” (>75% = ++++)
//
substance: 261 (APSARVGVC; listed as Homo sapiens) [compound 261]
reportedResult: “+++” (>50 = +++)
//
substance: 475 (RPHKPGLYL; listed as Homo sapiens) [compound 475]
reportedResult: “++++” (>75% = ++++)
//
substance: 260 (YPQHPGLNA; listed as Homo sapiens) [compound 260]
reportedResult: “+++” (>50 = +++)
//
substance: 230 (VPLPAGGGTVL; listed as Homo sapiens) [compound 230]
reportedResult: “+++” (>50 = +++)
//
substance: 279 (SPARASPAL; listed as Homo sapiens) [compound 279]
reportedResult: “+++” (>50 = +++)
//
substance: 270 (APGPRFLVT; listed as Homo sapiens) [compound 270]
reportedResult: “++++” (>75% = ++++)
//
substance: 228 (YPRGNHWAVGHL; listed as Homo sapiens) [compound 228]
reportedResult: “++++” (>75% = ++++)
//
substance: 255 (MPLLENLYL; listed as Homo sapiens) [compound 255]
reportedResult: “++++” (>75% = ++++)
//
substance: 472 (NPRATDAQL; listed as Homo sapiens) [compound 472]
reportedResult: “++++” (>75% = ++++)
//
substance: 248 (IPNWARQDL; listed as Homo sapiens) [compound 248]
reportedResult: “++++” (>75% = ++++)
//
substance: 283 (RPHSLSSEL; listed as Homo sapiens) [compound 283]
reportedResult: “++++” (>75% = ++++)
//
substance: 235 (MPLKHYLLL; listed as Homo sapiens) [compound 235]
reportedResult: “++++” (>75% = ++++)
//
substance: 473 (LPRALLSSL; listed as Homo sapiens) [compound 473]
reportedResult: “++++” (>75% = ++++)
//
substance: 289 (VPENHSVAL; listed as Homo sapiens) [compound 289]
reportedResult: “++++” (>75% = ++++)
//
substance: 275 (APHPPLSVV; listed as Homo sapiens) [compound 275]
reportedResult: “+++” (>50 = +++)
//
substance: 234 (RAKNAGVTI; listed as Homo sapiens) [compound 234]
reportedResult: “++++” (>75% = ++++)

###

# System: HLA-A*24
# methodDescription: MHC binding assay (UV-ligand exchange, β2m ELISA)
# Set-up: species or system human
readoutType: Peptide exchange (peptide exchange yield, MHC class I binding score)

substance: 6 (KYKDYFPVI; listed as Homo sapiens) [compound 6]
reportedResult: “++++” (>75% = ++++)
//
substance: 69 (IMPEKFEFW; listed as Homo sapiens) [compound 69]
reportedResult: “++++” (>75% = ++++)
//
substance: 50 (SYPELVKMVW; listed as Homo sapiens) [compound 50]
reportedResult: “++++” (>75% = ++++)

###

# Test system: HLA-A*01
# methodDescription: MHC binding assay (UV-ligand exchange, β2m ELISA)
# Design: species or system human
readoutType: Peptide exchange (peptide exchange yield, MHC class I binding score)

substance: 429 (NTEDSSMSGYLY; listed as Homo sapiens) [compound 429]
reportedResult: “++++” (>75% = ++++)
//
substance: 446 (VTAQVVGTERY; listed as Homo sapiens) [compound 446]
reportedResult: “++++” (>75% = ++++)
//
substance: 152 (HTDSLHLLI; listed as Homo sapiens) [compound 152]
reportedResult: “+++” (>50 = +++)
//
substance: 157 (LMDRPIFY; listed as Homo sapiens) [compound 157]
reportedResult: “++++” (>75% = ++++)
//
substance: 414 (KTDESLTKY; listed as Homo sapiens) [compound 414]
reportedResult: “+++” (>50 = +++)
//
substance: 180 (STDPWIQMAY; listed as Homo sapiens) [compound 180]
reportedResult: “++++” (>75% = ++++)
//
substance: 182 (TDYHVRVY; listed as Homo sapiens) [compound 182]
reportedResult: “+++” (>50 = +++)
//
substance: 140 (ESDREELNY; listed as Homo sapiens) [compound 140]
reportedResult: “+++” (>50 = +++)
//
substance: 444 (TTDTVIRSY; listed as Homo sapiens) [compound 444]
reportedResult: “+++” (>50 = +++)
//
substance: 162 (LVDNSIRELQY; listed as Homo sapiens) [compound 162]
reportedResult: “+++” (>50 = +++)
//
substance: 177 (SSDEVNFLVY; listed as Homo sapiens) [compound 177]
reportedResult: “++++” (>75% = ++++)
//
substance: 415 (LLDPRSYHTY; listed as Homo sapiens) [compound 415]
reportedResult: “+++” (>50 = +++)
//
substance: 151 (HSDLKVGEY; listed as Homo sapiens) [compound 151]
reportedResult: “+++” (>50 = +++)
//
substance: 448 (YLDIPNPRY; listed as Homo sapiens) [compound 448]
reportedResult: “+++” (>50 = +++)
//
substance: 141 (ESDVGVVVY; listed as Homo sapiens) [compound 141]
reportedResult: “+++” (>50 = +++)
//
substance: 195 (VVDSVGGYLY; listed as Homo sapiens) [compound 195]
reportedResult: “++++” (>75% = ++++)
//
substance: 174 (SADDIRGIQSLY; listed as Homo sapiens) [compound 174]
reportedResult: “++++” (>75% = ++++)
//
substance: 136 (ATDLVVLDRY; listed as Homo sapiens) [compound 136]
reportedResult: “++++” (>75% = ++++)

# credit: patent US11292821B2
